Test system: liver cell
Reported conditions: rat, in vivo
Assay endpoint: Finding of hepatocyte hypertrpy

CCC1(c2ccccc2)C(=O)NC(=O)NC1=O [Phenobarbital]
+
c1ccc2ncccc2c1 [Quinoline]
−
Clc1ccc(Cl)cc1 [1,4-Dichlorobenzene]
+
Clc1c(Cl)c(Cl)c(Cl)c(Cl)c1Cl [Hexachlorobenzene]
+
Cc1ccc(N)cc1N [2,4-Diaminotoluene]
−
CCOC(=O)C(C)(C)Oc1ccc(Cl)cc1 [Clofibrate]
+
C#C[C@]1(O)CC[C@H]2[C@@H]3CCc4cc(O)ccc4[C@H]3CC[C@@]21C [Ethinylestradiol]
−
ClC=C(Cl)Cl [Trichloroethylene]
−
CCCCC(CC)COC(=O)c1ccccc1C(=O)OCC(CC)CCCC (centres unmarked) [Di(2-ethylhexyl)phthalate]
+
OC[C@@H](O)[C@@H](O)[C@H](O)[C@H](O)CO [D-mannitol]
−
Cl.ClCc1ccccn1 [2-(Chloromethyl)pyridine hydrochloride]
−
Nc1ccc([N+](=O)[O-])cc1N [4-Nitro-o-phenylenediamine]
−
Cl[C@H]1[C@H](Cl)[C@H](Cl)[C@@H](Cl)[C@H](Cl)[C@H]1Cl [α-Hexachlorocyclohexane]
+
ClC(Cl)(Cl)Cl [Carbon tetrachloride]
−
Oc1cccc2cccnc12 [8-Hydrxyquinoline]
−
c1ccoc1 [Furan]
+
C=CCc1ccc2c(c1)OCO2 [Safrole]
+

###

System: liver cell
Reported conditions: rat, in vivo
Assay endpoint: Finding of hepatocyte hypertrpy

CC(C)[N+](=O)[O-]
−
O=NN1CCOCC1
−
CC(C)[C@@H]1CC[C@@H](C)C[C@H]1O (racemic)
+
IC(I)I [Iodoform]
+
COc1ccc(O)c(C(C)(C)C)c1 [Butylated hydroxyanisole]
−
CCN(CC)N=O
−
Cc1c(N)cccc1N
−
C1COCCO1
−
O=C1O[C@H]([C@@H](O)CO)C(O)=C1O
−
CCCCC(CC)COC(=O)CCCCC(=O)OCC(CC)CCCC (centres unmarked) [Di(2-ethylhexyl)adipate]
−
ClC1=C(Cl)C2(Cl)C3C4C=CC(C4)C3C1(Cl)C2(Cl)Cl (centres unmarked)
−

Reference source: patent US20090134028A1
